Run description: gradient 5% acetonitrile 3 min, to 50% in 2 min, to 85% in 15 min, held 3 min, 100 µL/min
Reported conditions: column: Zorbax Extend-C18 2.1 x 50 mm; eluents: water / acetonitrile, 0.1% formic acid
Observation type: RP-LC retention time (s)

Sample answers from the record:
1. CC(C)(C)n1nnnc1C1CC2(CCOCC2)C(=O)N1CCc1nc2ccccc2[nH]1 (stereo not given): 604
2. CCc1cc(=O)n(CC(=O)Nc2ccccc2C)c(N)n1: 639
3. O=C(CSc1ncc(CO)n1CC(=O)NC1CC1)Nc1ccc(F)cc1F: 565

(I) COC(=O)c1cccc(-c2nc(C3CC(=O)N(c4ccc(Cl)cc4)C3)no2)c1 (stereo not given)
(II) O=C(CN1C(=O)c2cccc3cccc(c23)C1=O)NCC1CCCO1 (stereo not given)
// compare measured RP-LC retention time, left I , right II , return larger Field: selected label. Fill in the label of the entry you choose.
I
(I: 1030 s, II: 651 s)
